Here, each record is paired with measured inhibition at 1 µM data.
SYSTEM NAME: UniProt P51449
PROCEDURE TEXT: RORγt binding test using fluorescent-labeled synthetic ligand (TR-FRET)
CONDITION INFO: test compound 1 μM; read-out: binding inhibitory rate (%) of fluorescent-labeled synthetic ligand to RORγt at test compound 1 μM
Record the value in %, omitting the unit from your answer.

// worked examples, inhibition at 1 µM included
| MOLECULE | SYSTEM NAME | UNIT OF MEASURE | inhibition at 1 µM |
| --- | --- | --- | --- |
| CC(C)n1c(=O)n(CC2CC2)c(=O)c2cc(NC(=O)N3CCOC(C(=O)Nc4cc(F)c(C#N)cc4F)C3)ccc21 (stereo not shown) [Example 135] | UniProt P51449 | % | 102 |
| CC(C)n1c(=O)n(CC2CC2)c(=O)c2cc(NC(=O)N3CCC[C@@H](NC(=O)c4ccc(CNC(=O)OC(C)(C)C)cc4)C3)ccc21 [Example 274] | UniProt P51449 | % | 102 |
| CC(C)n1c(=O)n(CC2CC2)c(=O)c2cc(NC(=O)N3CCO[C@@H](C(=O)Nc4cnc(C#N)c(Cl)c4)C3)ccc21 [Example 122] | UniProt P51449 | % | 101 |

q: inhibition at 1 µM for CC(C)n1c(=O)n(CC2CC2(F)F)c(=O)c2cc(NC(=O)N3CCCC(n4cnc5cc(C#N)ccc5c4=O)C3)c(F)cc21 (mixture of isomers) [Example 360] ?
a: 101

q: inhibition at 1 µM for CC(C)n1c(=O)n(CC2CC2(F)F)c(=O)c2cc(NC(=O)N3CCOC(C(=O)Nc4cnc(C#N)c(Cl)c4)C3)c(F)cc21 (mixture of isomers) [Example 356] ?
a: 102

q: inhibition at 1 µM for CC(C)n1c(=O)n(CC2CC(F)(F)C2)c(=O)c2cc(NC(=O)N3CCO[C@@H](C(=O)Nc4cc(Cl)c(C#N)cc4F)C3)c(F)cc21 [Example 351] ?
a: 101

q: inhibition at 1 µM for CCNC(=O)OCc1ccc(C(=O)N[C@@H]2CCCN(C(=O)Nc3cc4c(=O)n(CC5CC5)c(=O)n(C(C)C)c4cc3F)C2)cc1 [Example 315] ?
a: 102

q: inhibition at 1 µM for CC(C)n1c(=O)n(CC2CC2)c(=O)c2cc(NC(=O)N3CCO[C@@H](C(=O)Nc4ccc(C#N)c(F)c4)C3)ccc21 [Example 102] ?
a: 101

q: inhibition at 1 µM for Cc1ccc(F)c(C(=O)N[C@@H]2CCCN(C(=O)Nc3ccc4c(c3)c(=O)n(CC3CC3)c(=O)n4C(C)C)C2)c1 [Example 259] ?
a: 102

q: inhibition at 1 µM for CC(C)n1c(=O)n(CC2CC2)c(=O)c2cc(NC(=O)N3CCC[C@@H](NC(=O)c4ccc(C#N)cc4F)C3)ccc21 [Example 219] ?
a: 102

q: inhibition at 1 µM for CC(C)n1c(=O)n(CC2CC2(F)F)c(=O)c2cc(NC(=O)N3CCOC(C(=O)Nc4cc(Cl)c(C#N)cc4F)C3)c(F)cc21 (mixture of isomers) [Example 348] ?
a: 102

q: inhibition at 1 µM for Cc1cc(C(=O)N[C@@H]2CCCN(C(=O)Nc3ccc4c(c3)c(=O)n(CC3CC3)c(=O)n4C(C)C)C2)ccc1C#N [Example 249] ?
a: 102

q: inhibition at 1 µM for COc1ccc(C(=O)N[C@@H]2CCCN(C(=O)Nc3cc4c(=O)n(CC5CC5)c(=O)n(C(C)C)c4cc3F)C2)c(F)c1 [Example 291] ?
a: 102

* * *

SYSTEM NAME: RORγt (Homo sapiens, UniProt P51449)
Sequence (P51449 1-497 isoform P51449-2): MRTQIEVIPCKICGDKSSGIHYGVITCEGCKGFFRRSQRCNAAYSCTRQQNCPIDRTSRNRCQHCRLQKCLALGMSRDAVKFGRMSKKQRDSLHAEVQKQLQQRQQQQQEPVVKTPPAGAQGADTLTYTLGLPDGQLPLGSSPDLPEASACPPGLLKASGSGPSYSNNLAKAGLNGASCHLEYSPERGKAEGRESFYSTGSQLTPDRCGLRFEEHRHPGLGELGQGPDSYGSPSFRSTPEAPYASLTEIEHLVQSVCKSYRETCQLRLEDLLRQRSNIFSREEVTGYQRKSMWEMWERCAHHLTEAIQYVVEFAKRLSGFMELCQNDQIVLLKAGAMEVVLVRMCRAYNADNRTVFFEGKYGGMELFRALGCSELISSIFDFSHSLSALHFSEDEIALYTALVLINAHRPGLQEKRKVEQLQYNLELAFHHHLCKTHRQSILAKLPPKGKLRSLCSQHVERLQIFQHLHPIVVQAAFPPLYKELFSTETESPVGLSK
PROCEDURE TEXT: Jurkat reporter test (human IL-17 ROR response element luciferase reporter, RORγt vector)
Type: cell-based
CONDITION INFO: test compound 3 μM; Jurkat cells; read-out: luminescence level inhibitory rate (%) at test compound 3 μM
Procedure: The Jurkat cells used for the reporter test were cultured in a culture medium (RPMI (Invitrogen), 10% FCS (AusGeneX), 100 U/mL penicillin, 100 μg/mL streptomycin). On the day of the test, 4×10^7 cells were recovered by a centrifugal operation (1000 rpm, for 5 min) and suspended in PBS (phosphate buffered saline) (Invitrogen). […] Bright-Glo (Promega) was added by 100 μL, and the mixture was stirred at room temperature for 10 min, and the luminescence level was measured by Envision (PerkinElmer).
Here, each record is paired with measured inhibition at 3 µM data.
Record the value in %, omitting the unit from your answer.

| MOLECULE | inhibition at 3 µM [%] |
| --- | --- |
| CC(C)n1c(=O)n(CC2CC2)c(=O)c2cc(NC(=O)N3CCC[C@@H](NC(=O)c4ccc(C#N)cc4)C3)c(F)cc21 | 102 |
| CC(C)n1c(=O)n(CC2CC2)c(=O)c2cc(NC(=O)N3CCCC(NC(=O)c4ccc(C#N)cc4)C3)ccc21 (stereo not shown) | 101 |
| CC(C)n1c(=O)n(CC2CC2)c(=O)c2cc(NC(=O)N3CCO[C@@H](C(=O)Nc4ccc(C#N)c(F)c4)C3)c(F)cc21 | 105 |
| CC(C)n1c(=O)n(CC2CC2)c(=O)c2cc(NC(=O)N3CCO[C@@H](C(=O)Nc4cnc(C#N)c(Cl)c4)C3)c(F)cc21 | 103 |
| CC(C)n1c(=O)n(C[C@@H]2CCCO2)c(=O)c2cc(NC(=O)N3CCO[C@@H](C(=O)Nc4cc(Cl)c(C#N)cc4F)C3)c(F)cc21 | 106 |

q: inhibition at 3 µM for `CC(C)n1c(=O)n(CC2CC2)c(=O)c2cc(NC(=O)N3CCC[C@@H](NC(=O)c4ccc(Cl)cc4)C3)ccc21` ?
a: 103

q: inhibition at 3 µM for `CC(C)n1c(=O)n(C[C@@H]2CCCO2)c(=O)c2cc(NC(=O)N3CCO[C@@H](C(=O)Nc4ccc(C#N)c(Cl)c4)C3)c(F)cc21` ?
a: 106

q: inhibition at 3 µM for CC(C)n1c(=O)n(CC2CCOC2)c(=O)c2cc(NC(=O)N3CCO[C@@H](C(=O)Nc4ccc(C#N)c(Cl)c4)C3)c(F)cc21 (stereo partly shown) ?
a: 106

q: inhibition at 3 µM for `CC(C)n1c(=O)n(CC2CC2)c(=O)c2cc(NC(=O)N3CCO[C@@H](C(=O)Nc4cc(F)c(C#N)cc4F)C3)c(F)cc21` ?
a: 103

q: inhibition at 3 µM for COC(=O)c1cccc(C(=O)NC2CCCN(C(=O)Nc3ccc4c(c3)c(=O)n(CC3CC3)c(=O)n4C(C)C)C2)c1 (stereo not shown) ?
a: 102

q: inhibition at 3 µM for `CC(C)n1c(=O)n(CC2CC2)c(=O)c2cc(NC(=O)N3CCC[C@@H](N4Cc5ccc(C#N)cc5C4=O)C3)c(F)cc21` ?
a: 103

q: inhibition at 3 µM for CC(C)n1c(=O)n(CC2CC2(F)F)c(=O)c2cc(NC(=O)N3CCCC(n4cnc5cc(C#N)ccc5c4=O)C3)c(F)cc21 (mixture of isomers) [Example 360] ?
a: 107

q: inhibition at 3 µM for `CC(C)n1c(=O)n(CC2CC2)c(=O)c2cc(NC(=O)N3CCC[C@@H](NC(=O)c4ccc(C#N)cc4F)C3)ccc21` ?
a: 101

q: inhibition at 3 µM for CC(C)n1c(=O)n(CC2CC2)c(=O)c2cc(NC(=O)N3CCOC(C(=O)Nc4ccc(C#N)c(F)c4)C3)ccc21 (stereo not shown) ?
a: 100

q: inhibition at 3 µM for `CC(C)n1c(=O)n(CC2CC2)c(=O)c2cc(NC(=O)N3CCC[C@@H](NC(=O)c4ccc5c(c4)CCO5)C3)ccc21` ?
a: 102

q: inhibition at 3 µM for CC(C)n1c(=O)n(CC2CC2)c(=O)c2cc(NC(=O)N3CCCC(NC(=O)Nc4ccccc4)C3)ccc21 (stereo not shown) ?
a: 101

Reference source for all entries: patent US10000488B2
